Biological target: human alpha-2C-adrenoceptor (Homo sapiens, UniProt P18825)
Sequence (P18825 1-462): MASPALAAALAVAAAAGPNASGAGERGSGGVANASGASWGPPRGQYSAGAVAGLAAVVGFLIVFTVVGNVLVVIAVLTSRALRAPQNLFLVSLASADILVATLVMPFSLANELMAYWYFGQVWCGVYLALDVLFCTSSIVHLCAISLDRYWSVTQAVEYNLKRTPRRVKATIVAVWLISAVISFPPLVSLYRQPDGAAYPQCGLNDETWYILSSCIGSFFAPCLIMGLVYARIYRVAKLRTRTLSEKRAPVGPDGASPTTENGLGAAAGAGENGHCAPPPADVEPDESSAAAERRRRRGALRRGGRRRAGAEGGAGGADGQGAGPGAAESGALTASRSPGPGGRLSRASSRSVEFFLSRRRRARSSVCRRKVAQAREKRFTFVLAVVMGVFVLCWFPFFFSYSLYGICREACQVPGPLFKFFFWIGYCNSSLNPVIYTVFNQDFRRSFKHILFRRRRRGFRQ
pKi: −log10 of the molar value.
ENDPOINT_LABEL: pKi

Solved entries (count: 2):
In: So what's the measured pKi for this one? `Cc1cc(C)nc(NS(=O)(=O)c2ccc(NCc3ccccc3C)cc2)n1`
Out: < 5.00

In: So what's the measured pKi for this one? `Cc1cc(C)nc(NS(=O)(=O)c2ccc(NCc3nc4ccccc4n3CC(C)C)cc2)n1`
Out: < 4.52

Kindly consider the entry below.
In: So what's the measured pKi for this one? `Cc1cc(C)nc(NS(=O)(=O)c2ccc(NC(c3ccccc3)c3ccccc3)cc2)n1`
Out: < 4.52
